Assay: qHTS assay for small molecule agonists of the antioxidant response element (ARE) signaling pathway (AID 743202); also: potency is read from the fitted curve at half-maximal effect
Conditions: HepG2 ARE-bla reporter, beta-lactamase FRET, 16 h; series mostly up to 73.3 µM
Results filed as inconclusive are left out. Active and inactive are the calls of the source. Calls follow the shape of the dose curve; as a rule, active = well fitted activation curve with a large enough effect in the signal ratio in the repeat runs (not every such curve was filed as active); inconclusive = weak or mixed curves, or effect the other way; inactive = no such curve, though single readings can be large or run the other way; the % refers to the signal ratio.
experimental.endpoint: Potency

[[record]]
molecule = "O=C(CS)OCCOC(=O)CS"
reported_result = "inactive"

[[record]]
molecule = "COC(=O)c1cc(S(N)(=O)=O)ccc1OC"
reported_result = "inactive"

[[record]]
molecule = "CCCCCCCCSCCO"
reported_result = "inactive"

[[record]]
molecule = "O=C1NCCN1"
reported_result = "inactive"

[[record]]
molecule = "OCC1CC=CCC1 (stereo not given)"
reported_result = "inactive"

[[record]]
molecule = "CC(C)(CCl)c1ccccc1"
reported_result = "inactive"

[[record]]
molecule = "O=C(O)C(Cc1cc(I)c(O)c(I)c1)c1ccccc1 (stereo not given)"
reported_result = "inactive"

[[record]]
molecule = "CC(=O)Oc1ccc(C(=C2CCCCC2)c2ccc(OC(C)=O)cc2)cc1"
reported_result = "29.8 µM (active)"

[[record]]
molecule = "CN(C)C(=O)Nc1ccc(Oc2ccc(Cl)cc2)cc1"
reported_result = "19.3 µM (active)"

[[record]]
molecule = "COc1ccc([C@@H]2Sc3ccccc3NC(=O)[C@@H]2O)cc1"
reported_result = "inactive"

[[record]]
molecule = "O=C(Nc1ccc([N+](=O)[O-])cc1)Nc1ccc([N+](=O)[O-])cc1"
reported_result = "2.66 µM (active)"

[[record]]
molecule = "CCCC1C(CC)=CC(CC)=CN1c1ccccc1 (stereo not given)"
reported_result = "54.5 µM (active)"

[[record]]
molecule = "CC(N)CN (stereo not given)"
reported_result = "inactive"

[[record]]
molecule = "N#C[C@@H]1C[C@@H]2C[C@@H]2N1C(=O)[C@@H](N)C12CC3CC(CC(O)(C3)C1)C2"
reported_result = "inactive"

[[record]]
molecule = "Nc1ccc(S(=O)(=O)O)c(N)c1"
reported_result = "inactive"

[[record]]
molecule = "CC(=O)[C@H]1CC[C@H]2[C@@H]3C[C@H](C)C4=CC(=O)CC[C@]4(C)[C@H]3[C@@H](O)C[C@]12C"
reported_result = "inactive"

[[record]]
molecule = "CC1CC(=O)NN=C1c1ccc(NCC(C)(C)NCC(O)COc2cc(Cl)ccc2C#N)cc1 (stereo not given)"
reported_result = "inactive"

[[record]]
molecule = "CCC(C)(C)C1CCC(O)CC1 (stereo not given)"
reported_result = "inactive"

[[record]]
molecule = "Cc1cc(O)c(C(C)C)cc1Cl"
reported_result = "inactive"

[[record]]
molecule = "CCCOC(=O)c1ccc(C(=O)OCCC)nc1"
reported_result = "inactive"


###

Assay: Caspase-3/7 induction in CHO-K1 cells by small molecules, qHTS cell viability counter screen (AID 1346979); also: nearly all actives have a fitted effect of over 35% in size
Details: CellTiter-Fluor fluorescence, 17 h; series mostly up to 92.4 µM
Inconclusive results are not listed. Activity calls are given as the source filed them. The call rests on the fitted dose curve; in most records, active means well fitted cell-killing curve with a large enough effect in the repeat runs; inconclusive means weak or mixed curves, or effect the other way; inactive means no such curve, though single readings can be large or run the other way.
Outcomes: active, inactive

[[record]]
molecule = "CCC(=O)Oc1ccc(/C(CC)=C(\\CC)c2ccc(OC(=O)CC)cc2)cc1"
class = "active"

[[record]]
molecule = "NC(=O)Nc1ccc(Cl)cc1"
class = "inactive"

[[record]]
molecule = "CCOC(=O)OCC"
class = "inactive"

[[record]]
molecule = "CCCCN(CCCC)C(=S)SSC(=S)N(CCCC)CCCC"
class = "active"

[[record]]
molecule = "N#C/C(=C1\\SCC(c2ccccc2Cl)S1)n1ccnc1 (stereo not given)"
class = "inactive"

[[record]]
molecule = "ON(Cc1ccccc1)Cc1ccccc1"
class = "inactive"

[[record]]
molecule = "CCn1nc(C)c2c1C(=O)NCC(c1ccc(O)cc1)=N2"
class = "inactive"

[[record]]
molecule = "O=C(N/N=C/c1ccc([N+](=O)[O-])o1)c1ccc(O)cc1"
class = "active"

[[record]]
molecule = "O=C(Nc1ccc([N+](=O)[O-])cc1)Nc1ccc([N+](=O)[O-])cc1"
class = "inactive"

[[record]]
molecule = "CCC(C(=O)OCCN(CC)CC)c1ccccc1 (stereo not given)"
class = "inactive"

[[record]]
molecule = "O=C(O)c1snc(Cl)c1Cl"
class = "inactive"

[[record]]
molecule = "Fc1c(F)c(F)c(Br)c(F)c1F"
class = "inactive"

[[record]]
molecule = "CNCCCC1c2ccccc2C=Cc2ccccc21"
class = "active"

[[record]]
molecule = "O=C(C(=O)c1ccccc1)c1ccccc1"
class = "inactive"

[[record]]
molecule = "O=C(CCCCCCCCC#CI)Oc1ccccc1"
class = "inactive"

[[record]]
molecule = "c1ccc(COCc2ccccc2)cc1"
class = "inactive"

[[record]]
molecule = "CCCC1C(CC)=CC(CC)=CN1c1ccccc1 (stereo not given)"
class = "inactive"

[[record]]
molecule = "COCCOC"
class = "active"

[[record]]
molecule = "COC(=O)c1cc(Cl)ccc1NS(=O)(=O)C(F)(F)F"
class = "inactive"

[[record]]
molecule = "CCCCC(CC)CNCC(CC)CCCC (stereo not given)"
class = "inactive"


###

Target: Cytochrome P450 1A2 (Homo sapiens) (UniProt P05177)
Sequence (P05177 whole entry, looked up): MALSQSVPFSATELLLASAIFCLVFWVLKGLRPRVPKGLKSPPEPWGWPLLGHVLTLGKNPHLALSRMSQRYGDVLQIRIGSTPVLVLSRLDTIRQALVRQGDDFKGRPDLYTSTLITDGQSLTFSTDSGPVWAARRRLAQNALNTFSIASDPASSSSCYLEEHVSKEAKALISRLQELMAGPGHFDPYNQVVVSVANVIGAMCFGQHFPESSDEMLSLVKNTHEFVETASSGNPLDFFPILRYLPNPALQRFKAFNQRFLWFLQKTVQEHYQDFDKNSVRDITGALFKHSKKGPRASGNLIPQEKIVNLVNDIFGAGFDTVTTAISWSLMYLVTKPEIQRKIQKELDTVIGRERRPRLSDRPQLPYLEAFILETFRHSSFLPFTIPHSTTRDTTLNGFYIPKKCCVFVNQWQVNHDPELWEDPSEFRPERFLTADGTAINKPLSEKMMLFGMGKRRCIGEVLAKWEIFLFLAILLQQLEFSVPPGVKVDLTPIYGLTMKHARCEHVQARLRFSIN
Experiment: Cytochrome P450 Family 1 Subfamily A Member 2 (CYP1A2) small molecule antagonists: luciferase reporter qHTS assay (AID 1671199); also: nearly all actives have a fitted effect of over 50% in size
Conditions: P450-Glo CYP1A2 enzyme, luciferin luminescence, 1 h; series mostly up to 53 µM
Text: National Center for Advancing Translational Sciences [NCATS] U.S. Environmental Protection Agency [EPA] National Institutes of Environmental Health Sciences [NIEHS] National Toxicology Program [NTP] U.S. Food and Drug Administration [FDA] Cytochrome P450 (CYP) enzymes are membrane-bound hemeproteins that play a key role in metabolism of drugs and xenobiotics. […] The luciferin products formed are detected with a luciferin detection reagent, and the amount of light produced is proportional to CYP activity. […]
Results filed as inconclusive are left out. Activity calls are given as the source filed them. Calls come from the whole dose curve; as a rule, active = well fitted inhibition curve with a large enough effect in the repeat runs; inconclusive = weak or mixed curves; inactive = no such curve, though single readings can be large or run the other way.
Outcomes: active, inactive

[[record]]
molecule = "Cc1nc2ccccn2c(=O)c1CCN1CCC(C(=O)c2ccc(F)cc2)CC1"
class = "inactive"

[[record]]
molecule = "NC(=O)N(O)[C@@H]1COc2cc(OCc3ccccc3)ccc21"
class = "active"

[[record]]
molecule = "CCn1cc(C(=O)O)c(=O)c2cc(F)c(N3CCNCC3)nc21"
class = "inactive"

[[record]]
molecule = "CC(C)(CCl)c1ccccc1"
class = "inactive"

[[record]]
molecule = "Oc1cc(O)c(Cl)cc1Cl"
class = "active"

[[record]]
molecule = "CC(C)C(OC(=O)c1ccccc1)C(C)(C)COC(=O)c1ccccc1 (centres undefined)"
class = "active"

[[record]]
molecule = "COC(=O)c1cc(S(N)(=O)=O)ccc1OC"
class = "inactive"

[[record]]
molecule = "CC(=O)CC(c1ccc([N+](=O)[O-])cc1)c1c(O)c2ccccc2oc1=O (centres undefined)"
class = "inactive"

[[record]]
molecule = "Cn1c(=O)c2c(ncn2CC(=O)O)n(C)c1=O"
class = "inactive"

[[record]]
molecule = "C=CCNc1nc(NCC=C)nc(N2CCN(C(c3ccc(F)cc3)c3ccc(F)cc3)CC2)n1"
class = "inactive"

[[record]]
molecule = "O=C(NCCCN1CCOCC1)c1ccc(Cl)cc1"
class = "inactive"

[[record]]
molecule = "CCCOC(=O)c1ccc(C(=O)OCCC)nc1"
class = "active"

[[record]]
molecule = "CN1CCN(CCCN2c3ccccc3Sc3ccc(S(=O)(=O)N(C)C)cc32)CC1"
class = "inactive"

[[record]]
molecule = "COc1cc2c(cc1OC)-c1cc(=Nc3c(C)cc(C)cc3C)n(C)c(=O)n1CC2"
class = "inactive"

[[record]]
molecule = "CCCC(=O)O[C@]1(C(=O)COC(=O)CC)CC[C@H]2[C@@H]3CCC4=CC(=O)CC[C@]4(C)[C@H]3[C@@H](O)C[C@@]21C"
class = "inactive"

[[record]]
molecule = "CCc1nn(CCCN2CCN(c3cccc(Cl)c3)CC2)c(=O)n1CCOc1ccccc1"
class = "inactive"

[[record]]
molecule = "CN1CCN(c2c(F)cc3c(=O)c(C(=O)O)cn4c3c2OCN4C)CC1"
class = "inactive"

[[record]]
molecule = "COCc1c(C(C)C)nc(C(C)C)c(/C=C/[C@@H](O)C[C@@H](O)CC(=O)O)c1-c1ccc(F)cc1"
class = "active"

[[record]]
molecule = "CC(=O)N(c1onc(C)c1C)S(=O)(=O)c1ccc(N)cc1"
class = "inactive"

[[record]]
molecule = "CCCCCCCC/C=C\\CCCCCCCC(=O)OC"
class = "active"

[[record]]
molecule = "CCOC(=O)C(C)Oc1ccc(Oc2nc3ccc(Cl)cc3o2)cc1 (centres undefined)"
class = "active"

[[record]]
molecule = "CN1C(=O)CC(C)(c2ccccc2)C1=O (centres undefined)"
class = "inactive"

[[record]]
molecule = "CCCCN(CCCC)CCCOC(=O)c1ccc(N)cc1"
class = "inactive"

[[record]]
molecule = "Cc1cc2nc3ccc(=[N+](C)C)cc-3sc2cc1N"
class = "active"

[[record]]
molecule = "CCN(CC)CCNC(=O)c1ccc(NC(C)=O)cc1"
class = "inactive"

[[record]]
molecule = "Cc1occc1C(=O)Nc1ccc(C(=O)N2CCC(F)(F)/C(=C\\C(=O)N3CCC(N4CCCCC4)CC3)c3ccccc32)cc1"
class = "active"

[[record]]
molecule = "CCC(C(=O)OCCOCCN(CC)CC)c1ccccc1 (centres undefined)"
class = "inactive"

[[record]]
molecule = "Cc1c(C(=O)NN2CCCCC2)nn(-c2ccc(Cl)cc2Cl)c1-c1ccc(Cl)cc1"
class = "inactive"

[[record]]
molecule = "C[C@]12CCC(=O)C=C1C=C[C@@H]1[C@@H]2CC[C@@]2(C)[C@H]1CC[C@@]21CCC(=O)O1"
class = "inactive"

[[record]]
molecule = "Nc1ccc(S(=O)(=O)O)c(N)c1"
class = "active"

[[record]]
molecule = "CCCCC1C(=O)N(c2ccccc2)N(c2ccc(O)cc2)C1=O (centres undefined)"
class = "inactive"

[[record]]
molecule = "CCCCCCCCCCOS(=O)(=O)O"
class = "inactive"

[[record]]
molecule = "Oc1ccc(Nc2ccccc2)cc1"
class = "active"

[[record]]
molecule = "O=C(O)c1cccnc1C(=O)O"
class = "inactive"

